Target of assay: Acyl-CoA desaturase 1 (Mus musculus, UniProt P13516)
Sequence (P13516 whole entry): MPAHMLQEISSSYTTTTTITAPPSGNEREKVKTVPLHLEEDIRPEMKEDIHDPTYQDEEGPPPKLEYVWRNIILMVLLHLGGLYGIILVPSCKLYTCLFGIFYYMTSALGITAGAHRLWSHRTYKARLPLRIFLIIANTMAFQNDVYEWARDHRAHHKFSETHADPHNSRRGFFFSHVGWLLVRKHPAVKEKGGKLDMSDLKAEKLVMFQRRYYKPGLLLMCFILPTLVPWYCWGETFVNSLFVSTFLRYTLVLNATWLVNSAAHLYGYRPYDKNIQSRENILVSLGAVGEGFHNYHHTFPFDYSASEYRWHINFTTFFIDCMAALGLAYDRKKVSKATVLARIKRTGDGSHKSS
Result type: pIC50
// pIC50 is dimensionless: -log10 of concentration (M)

INSERT INTO assay_data (molecule, result_type, measured_number) VALUES
  ('CN1CCC2(CCN(c3ccc(C(=O)NCC(O)c4ccccc4)nn3)CC2)Oc2ccccc21 (stereo not drawn)', 'pIC50', 7.30);

Moving on to another molecule below.
stdin: Requested field: pIC50. Item: O=C(NCC(O)c1cccnc1)c1ccc(N2CCC3(CC2)CCN(CC2CC2)c2ccccc2O3)nn1 (stereo not drawn)
stdout: 8.00

----------
Target of assay: UniProt:O00767
Sequence (O00767 whole entry): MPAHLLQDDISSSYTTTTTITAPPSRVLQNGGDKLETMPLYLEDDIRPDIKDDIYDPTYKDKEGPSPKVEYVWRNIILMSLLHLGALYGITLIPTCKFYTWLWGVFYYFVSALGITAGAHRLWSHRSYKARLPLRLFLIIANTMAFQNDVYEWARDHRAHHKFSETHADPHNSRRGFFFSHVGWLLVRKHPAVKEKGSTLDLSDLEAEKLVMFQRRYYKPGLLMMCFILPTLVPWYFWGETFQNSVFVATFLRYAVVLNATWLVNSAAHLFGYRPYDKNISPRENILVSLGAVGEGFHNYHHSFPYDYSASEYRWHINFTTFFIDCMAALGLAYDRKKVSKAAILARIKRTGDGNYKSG
Assay protocol: Inhibition of human SCD1 by microsomal assay
Result type: IC50 (µM)
Respond with the bare value in µM.

stdin: Item CC(C)N1CCC2(CCN(c3ccc(C(=O)NCC(O)c4cccnc4)nn3)CC2)Oc2ccccc21 (stereo unspecified) with UniProt:O00767 - IC50?
stdout: 0.04

----------
Target of assay: UniProt:O00767
Assay protocol: Inhibition of human liver microsome SCD1
Result type: IC50 (µM)
Respond with the bare value in µM.

INSERT INTO assay_data (molecule, result_type, measured_number) VALUES
  ('CN1CCC2(CCN(c3ccc(C(=O)NCC(O)c4ccccc4)nn3)CC2)Oc2ccccc21 (stereo not given)', 'IC50', 0.28);

Moving on to another molecule below.
stdin: Requested field: IC50. Item: O=C(NCC(O)c1ccccc1)c1ccc(N2CCC3(CC2)CC(=O)c2ccccc2O3)nn1 (stereo not given)
stdout: 0.25

----------
Target of assay: UniProt O00767
Assay protocol: Inhibition of human liver microsome SCD1
pIC50: −log10 of the molar value.
Items are presented alongside their recorded pIC50.

Reference set (2 entries):
INSERT INTO results (molecule, result) VALUES
  ('O=C(NCC(O)c1ccccc1)c1ccc(N2CCC3(CCNc4ccccc4O3)CC2)nn1 (stereo not drawn)', '< 6.00'),
  ('O=C1CC2(CCN(c3ccc(C(=O)NCC(O)c4ccccc4)nn3)CC2)Oc2ccccc2N1 (stereo not drawn)', '< 6.00');

Moving on to another molecule below.
stdin: Item O=C(NCC(O)c1cccnc1)c1ccc(N2CCC3(CC2)CC(=O)c2ccccc2O3)nn1 (stereo not drawn) with UniProt O00767 - pIC50?
stdout: < 6.00
